Each recorded value in this set is attributed to paper PMC9321930.

Each item that follows carries a reported Papp.
- measurement description: Transport assay (permeability) across iBMEC_71Q transwell BBB model
- condition: female, human
Please state the figure in ×10⁻⁶ cm/s; there is no need to write the unit.

Answered cases to consult:
structure smiles string	measure	units label	numeric readout
O=C1OC2(c3ccc(O)cc3Oc3cc(O)ccc32)c2ccccc21	Papp	×10⁻⁶ cm/s	0.24
N[C@@H](Cc1ccccc1)C(=O)O	Papp	×10⁻⁶ cm/s	21.4

We now examine a further compound.
Field request: Papp | item: O=C1NC(=O)C(c2ccccc2)(c2ccccc2)N1
20.9

----------
Each item that follows carries a reported Papp.
- measurement description: Transport assay (permeability) across iBMEC_33Q transwell BBB model
- condition: female, human
Please state the figure in ×10⁻⁶ cm/s; there is no need to write the unit.

Answered cases to consult:
structure smiles string	measure	units label	numeric readout
O=C1NC(=O)C(c2ccccc2)(c2ccccc2)N1	Papp	×10⁻⁶ cm/s	18.6
O=C1OC2(c3ccc(O)cc3Oc3cc(O)ccc32)c2ccccc21	Papp	×10⁻⁶ cm/s	0.11

We now examine a further compound.
Field request: Papp | item: N[C@@H](Cc1ccccc1)C(=O)O
25.8
